# Condition Set: in ethyl acetate, 278.15 K
Measured Parameter: solubility (mole fraction)

Req: Entry under review: CC1(C)[C@H](C(=O)O)N2C(=O)[C@@H](NC(=O)Cc3ccccc3)[C@H]2S1=O (stereo partly specified) . Reported solubility (mole fraction)?
Resp: 0.00222

====

# Condition Set: in n-butyl acetate, 278.25 K
Measured Parameter: solubility (mole fraction)

Req: Entry under review: CC1(C)[C@H](C(=O)O)N2C(=O)[C@@H](NC(=O)Cc3ccccc3)[C@H]2S1=O (stereo partly specified) . Reported solubility (mole fraction)?
Resp: 0.000678

====

# Condition Set: in n-butyl acetate, 312.65 K
Measured Parameter: solubility (mole fraction)

Req: Entry under review: CC1(C)[C@H](C(=O)O)N2C(=O)[C@@H](NC(=O)Cc3ccccc3)[C@H]2S1=O (stereo partly specified) . Reported solubility (mole fraction)?
Resp: 0.00166
